Biological target: human PSMA (Homo sapiens (Human))
Sequence (Q04609 whole entry): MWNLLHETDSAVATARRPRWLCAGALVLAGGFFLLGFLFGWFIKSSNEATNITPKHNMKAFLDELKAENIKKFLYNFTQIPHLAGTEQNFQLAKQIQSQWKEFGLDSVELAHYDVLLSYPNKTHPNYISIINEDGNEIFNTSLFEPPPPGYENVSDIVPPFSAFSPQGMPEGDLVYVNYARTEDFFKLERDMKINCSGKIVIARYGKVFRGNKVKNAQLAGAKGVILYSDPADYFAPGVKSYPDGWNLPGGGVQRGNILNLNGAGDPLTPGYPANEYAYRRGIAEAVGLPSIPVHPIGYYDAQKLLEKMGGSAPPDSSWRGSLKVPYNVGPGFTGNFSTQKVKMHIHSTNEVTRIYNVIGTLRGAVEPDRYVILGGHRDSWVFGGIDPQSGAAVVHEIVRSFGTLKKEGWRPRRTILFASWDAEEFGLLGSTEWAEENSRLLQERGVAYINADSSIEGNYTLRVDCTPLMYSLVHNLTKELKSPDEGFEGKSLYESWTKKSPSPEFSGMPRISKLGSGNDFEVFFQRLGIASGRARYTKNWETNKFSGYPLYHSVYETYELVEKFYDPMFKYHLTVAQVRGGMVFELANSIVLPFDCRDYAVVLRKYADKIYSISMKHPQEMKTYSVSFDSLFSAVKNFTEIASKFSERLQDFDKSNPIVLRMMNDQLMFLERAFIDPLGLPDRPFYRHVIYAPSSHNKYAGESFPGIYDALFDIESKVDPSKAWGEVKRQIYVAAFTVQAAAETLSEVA
Assay: Enzymatic assay for in vitro evaluation of PSMA inhibitors (fluorescent assay of PSMA activity, NAAG substrate, OPA detection of glutamate)
Type: biochemical
Settings: compound at 10 μM
measurement.name: PSMA Blkg % (10 μM)

Reference set, count: 4
Query string: Read off the recorded PSMA Blkg % (10 μM) for O=C(O)CC[C@H](NC(=O)C[C@H](NC(=O)CCCCNC(=O)c1ccccc1)C(=O)O)C(=O)O [P119]
Result string: 26%

Query string: Read off the recorded PSMA Blkg % (10 μM) for CN(C(=O)[C@H](CC(=O)O)NC(=O)c1ccc(-n2cc(CCCF)nn2)cc1)[C@@H](CCC(=O)O)C(=O)O [P159]
Result string: 39%

Query string: Read off the recorded PSMA Blkg % (10 μM) for O=C(O)CC[C@H](NC(=O)NCC(=O)O)C(=O)O [P022]
Result string: 77%

Query string: Read off the recorded PSMA Blkg % (10 μM) for NNC(=O)N[C@@H](CCC(=O)O)C(=O)O [P061]
Result string: 0%

Lab note: next compound to report on.
Query string: Read off the recorded PSMA Blkg % (10 μM) for O=C(O)CC[C@H](NC(=O)CN(O)C(=O)CCCc1ccc(F)cc1)C(=O)O [P154]
Result string: 50%
